- Test system: Saccharomyces cerevisiae;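 further: PSI is a weighted mean of sequencing reads over stability bins, variants kept only with over 10 reads, mCherry proximal and sfGFP distal, peptide attached via GGGS linker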
- experimental-details: protein stability index of tFT-peptide fusion (C-terminal peptide) (PSI (0-1 scale)); higher = more stable (slower turnover)
- condition-label: genetic background: wild type; temperature: 30 C
Class definitions on protein stability index: LOW = under 0.6, MID = from 0.6 up to 0.7, HIGH = 0.7 and over

| sequence-data | classification |
| --- | --- |
| GVSFLFVGVSLV | LOW |
| VESGVLCPGVGA | MID |
| CLPSLPPFPASL | HIGH |
| YPYLLSPRPPPP | MID |
| CPSSFSALSNSR | MID |
| VDSAPRPPPEPC | MID |
| SHWSMQATLQLV | LOW |
| LLNNTLENQNTL | MID |
| LRSVVFFCRTLL | LOW |
| QCVSGLGPVVRT | HIGH |
